Below: a set of entries, each annotated with reported % Inhibition.
test system: P. falciparum stage V gametocytes; parameters: BacTiter-Glo ATP luminescence viability of purified stage V gametocytes in 384-well plates, per cent inhibition versus DMSO; conditions: 48 h, 5 µM; inhibitor
About 3,200 (25%) of roughly 13,000 compounds showed an effect of 50% or more. The list shows a part of the results.
measurement-type: % Inhibition (%)

{"molecule": "N#Cc1c(N2CCCCCC2)nc(N)c2c(N)nc3c(c12)CC(=O)N3c1ccc(F)cc1", "measurement-type": "% Inhibition", "value-measured": 44.67}
{"molecule": "COCc1nc(N)nc(N)c1-c1ccc(Cl)c(Cl)c1", "measurement-type": "% Inhibition", "value-measured": -9.797}
{"molecule": "OC(CN1c2ccccc2Sc2ccccc21)CN(C1CCCCC1)C1CCCCC1 (centres unmarked)", "measurement-type": "% Inhibition", "value-measured": 51.78}
{"molecule": "CCc1nc(N)nc(N)c1CCCOc1ccccc1Cl", "measurement-type": "% Inhibition", "value-measured": -12.09}
{"molecule": "COc1cc(Cc2cnc(N)nc2N)cc(OC)c1OCCNC(=O)[C@@H](N)CCC(=O)O", "measurement-type": "% Inhibition", "value-measured": -2.761}
{"molecule": "CC(C)[C@H](NC(=O)c1ccc(O)c(-c2ccc(Cl)c(Cl)c2)c1)C(=O)NCCN1CCOCC1", "measurement-type": "% Inhibition", "value-measured": -3.222}
{"molecule": "CC(C)CC1c2[nH]c3ccccc3c(=O)c2CN1C(=O)OC(C)(C)C (centres unmarked)", "measurement-type": "% Inhibition", "value-measured": 44.74}
{"molecule": "Nc1cc2c(C3CCN(CC4CCN(C(=O)/C=C/c5ccc(Cl)c(Cl)c5)CC4)CC3)c[nH]c2cn1", "measurement-type": "% Inhibition", "value-measured": 101.5}
